In this section, each of the compounds is paired with its reported GI50.
System: HOP-92
procedureDetails: NCI tumour cell line growth inhibition, 48 h
Calls of active or inactive are those of the source. No stated cut-off is given here; in the data, active = GI50 up to about 1.1 µM and inactive = higher.
measuredEndpoint: GI50

[
  {
    "compound": "CCOC(=O)c1cc2cc3c4c(c2oc1=O)CCCN4CCC3",
    "result": "17.1 µM (inactive)"
  },
  {
    "compound": "CCOC(=O)/C=C/n1c2ccccc2c(=O)c2cc(OC)ccc21",
    "result": "57.9 µM (inactive)"
  },
  {
    "compound": "COc1ccccc1/N=N/C(=N/NC(=O)c1ccc(C)cc1)c1ccc(N(CCC#N)CCC#N)cc1OC",
    "result": "27.4 µM (inactive)"
  },
  {
    "compound": "O=c1cc(CO)oc(C(O)c2ccccc2)c1O (stereo not given)",
    "result": "> 100 µM (inactive)"
  },
  {
    "compound": "CN(C)CCNS(=O)(=O)c1ccc(N)cc1",
    "result": "> 100 µM (inactive)"
  },
  {
    "compound": "CCCCCCCC1(c2ccc(N)cc2)CCC(=O)NC1=O (stereo not given)",
    "result": "15.2 µM (inactive)"
  },
  {
    "compound": "CC1(C)O[C@H]2OC(CO)C(N=[N+]=[N-])[C@H]2O1 (stereo not given in full)",
    "result": "> 100 µM (inactive)"
  },
  {
    "compound": "CC(C)Cc1cccc(C(C)C)c1NC(=O)CCC(=O)N/N=C1\\C(=N/NC(=O)CCC(=O)Nc2c(C(C)C)cccc2C(C)C)C(c2ccc3c(c2)OCO3)Oc2ccccc21 (stereo not given)",
    "result": "> 100 µM (inactive)"
  },
  {
    "compound": "O=C(CC(Cl)=C(Cl)Cl)c1ccccc1",
    "result": "> 100 µM (inactive)"
  },
  {
    "compound": "N#CC(N)c1ccc(OCCCCCCCCCCOc2ccc(C(N)C#N)cc2)cc1 (stereo not given)",
    "result": "> 100 µM (inactive)"
  }
]

* * *

Test system: SNB-19
procedureDetails: NCI tumour cell line growth inhibition, 48 h
Activity calls are given as the source filed them. Rule as the data show it: active = GI50 up to about 1.1 µM and inactive = higher. Where a SMILES comes first, the peptide text is derived from it. [ ]: non-standard residue; d: D form. Phe(4-Cl) = N[CH](Cc1ccc(Cl)cc1)C(=O)O

[
  {
    "molecule": "O=S(=O)(Nc1ccc2ccc3cccc4ccc1c2c34)c1ccccc1",
    "GI50": "85.5 µM (inactive)"
  },
  {
    "molecule": "CCC12CCCN(Cc3ccccc3)C1c1c([nH]c3ccccc13)C(C(=O)OC)C2 (stereo unspecified)",
    "GI50": "> 10 µM (inactive)"
  },
  {
    "molecule": "CC(=O)Nc1ccc(C(=O)NN2C(=O)C(Cl)C2c2cc(Br)ccc2O)cc1 (stereo unspecified)",
    "GI50": "7.62 µM (inactive)"
  },
  {
    "molecule": "C[C@]12CCC(=O)CC1CCCC2=O (stereo partly specified)",
    "GI50": "> 100 µM (inactive)"
  },
  {
    "molecule": "O=C(O)CCn1cnc2c(S)ncnc21",
    "GI50": "> 100 µM (inactive)"
  },
  {
    "molecule": "Fc1cccc(F)c1C1SCc2nc3ccccc3n21 (stereo unspecified)",
    "GI50": "> 100 µM (inactive)"
  },
  {
    "molecule": "O=Cc1c2n(c3ccccc13)N[C@@](Cc1ccc(O)cc1)(C(=O)O)C2",
    "GI50": "> 100 µM (inactive)"
  },
  {
    "molecule": "CC(O)C(NC(=O)C(Cc1ccccc1)NC(=O)C(NC(=O)C(CCCCN)NC(=O)C(Cc1c[nH]c2ccccc12)NC(=O)C(Cc1ccc(O)cc1)NC(=O)C(Cc1ccc(Cl)cc1)NC(=O)C(N)Cc1ccccc1)C(C)O)C(N)=O (stereo unspecified) (H-F[Phe(4-Cl)]YWKTFT-NH2; configuration not given here)",
    "GI50": "18.4 µM (inactive)"
  },
  {
    "molecule": "O/N=N/c1cnccn1",
    "GI50": "> 1250 µM (inactive)"
  },
  {
    "molecule": "CC(=O)C(C(=N)C#N)C(=O)Nc1ccccc1 (stereo unspecified)",
    "GI50": "> 100 µM (inactive)"
  },
  {
    "molecule": "O=[N+]([O-])c1ccc(C(O)(C#CCN2CCCC2)c2ccccc2)cc1 (stereo unspecified)",
    "GI50": "98.2 µM (inactive)"
  },
  {
    "molecule": "CC1CCCCCC(=O)c2c(O)cc(O)cc2CC(=O)O1 (stereo unspecified)",
    "GI50": "> 100 µM (inactive)"
  },
  {
    "molecule": "CCCCCC/C=C/C#CCCCCCCCC(=O)O",
    "GI50": "> 100 µM (inactive)"
  },
  {
    "molecule": "O=C(OC12CC3CC(CC(C3)C1)C2)c1ccc(NCc2cc(O)ccc2O)cc1",
    "GI50": "2.31 µM (inactive)"
  },
  {
    "molecule": "CCCNC(=O)c1cc(NC(=O)c2cc(NC(=O)CCS(=O)(=O)OC)cn2C)cn1C",
    "GI50": "2.21 µM (inactive)"
  },
  {
    "molecule": "CO/N=C(\\C(=O)O/C(=N/C1CCCCC1)NC1CCCCC1)c1csc(NC(c2ccccc2)(c2ccccc2)c2ccccc2)n1",
    "GI50": "> 10 µM (inactive)"
  },
  {
    "molecule": "COC(=O)c1c(C(=O)OC)c2ccccn2c1-c1cc(OC)c(Br)c(=O)o1",
    "GI50": "> 100 µM (inactive)"
  },
  {
    "molecule": "COc1ccc(NC(=S)N/N=C/c2cccc(C)n2)cc1",
    "GI50": "7.16 µM (inactive)"
  },
  {
    "molecule": "O=C(O)C(Cl)(Cl)Cl",
    "GI50": "> 100 µM (inactive)"
  },
  {
    "molecule": "COc1cccc(C2c3cc4c(cc3OC(C)(O)C2C)OCO4)c1O (stereo unspecified)",
    "GI50": "5.2 µM (inactive)"
  },
  {
    "molecule": "Cn1c2ccccc2c(=NNc2cccc(C(=O)O)c2)c2ccccc21",
    "GI50": "6.84 µM (inactive)"
  }
]

* * *

Test system: SK-MEL-28
procedureDetails: NCI tumour cell line growth inhibition, 48 h
Activity calls are given as the source filed them. Rule as the data show it: active = GI50 up to about 1.1 µM and inactive = higher.
measuredEndpoint: GI50

[
  {
    "compound": "O=C(O)CCn1cnc2c(S)ncnc21",
    "result": "> 100 µM (inactive)"
  },
  {
    "compound": "CC(=O)OCCOCNC(=S)N/N=C(\\C)c1cnc2ccccc2n1",
    "result": "43.6 µM (inactive)"
  },
  {
    "compound": "Cc1ccc2nc(-c3ccccc3)cc(=O)n2c1",
    "result": "> 100 µM (inactive)"
  },
  {
    "compound": "CC(C)[Si](OC1=CCCCCC12C(=O)N(C)c1ccccc12)(C(C)C)C(C)C (stereo unspecified)",
    "result": "23.6 µM (inactive)"
  },
  {
    "compound": "COc1cc([C@@H]2c3cc4c(cc3[C@@H](NC(=O)c3ccc(C#N)cc3)C3COC(=O)[C@@H]32)OCO4)cc(OC)c1O (stereo partly specified)",
    "result": "2.43 µM (inactive)"
  },
  {
    "compound": "O=C(Nc1nncs1)NS(=O)(=O)n1cnc2ccccc21",
    "result": "> 100 µM (inactive)"
  },
  {
    "compound": "CCOc1cc(/C=C2/C(C)=NN(c3cccc(Cl)c3)/C2=N/c2nc3ccccc3s2)ccc1O",
    "result": "34.7 µM (inactive)"
  },
  {
    "compound": "CC(=O)OC12C3C4C1C1C2C3C41OC(C)=O (stereo unspecified)",
    "result": "> 100 µM (inactive)"
  },
  {
    "compound": "CCOC(=O)/C(=C\\c1cccs1)P(=O)(OCC)OCC",
    "result": "17.2 µM (inactive)"
  },
  {
    "compound": "CCOC(=O)C1(C(=O)OCC)[C@@H](c2ccccc2)C2=NO[C@@H]3CCC[C@H]1[C@H]23",
    "result": "> 100 µM (inactive)"
  },
  {
    "compound": "CCOC(=O)c1cn2c(n1)sc1cc(Cl)ccc12",
    "result": "76.2 µM (inactive)"
  }
]

* * *

System: RXF 393
procedureDetails: NCI tumour cell line growth inhibition, 48 h
The source made the active and inactive calls. No stated cut-off is given here; in the data, active = GI50 up to about 1.1 µM and inactive = higher.
Outcome codes: active, inactive

[
  {
    "compound": "O=C1Nc2ccccc2/C1=C1/Nc2ccccc2/C1=N/OCCOCCO",
    "categoryLabel": "active"
  },
  {
    "compound": "O=C(CNC(=O)c1ccccc1)Oc1c(Cl)c(Cl)c(Cl)c(Cl)c1Cl",
    "categoryLabel": "inactive"
  },
  {
    "compound": "Cc1cc(C)nc(NS(=O)(=O)c2ccc(NC(=O)c3cccc4c(Nc5ccc(S(N)(=O)=O)cc5)c5ccccc5nc34)cc2)n1",
    "categoryLabel": "inactive"
  },
  {
    "compound": "CC[C@@H](C)[C@H](NC(=O)[C@H](Cc1ccccc1)NCC(F)(F)F)C(=O)OC(C)(C)C",
    "categoryLabel": "inactive"
  },
  {
    "compound": "NCC1OC(n2cnc3c(N)ncnc32)CC1O (stereo not given)",
    "categoryLabel": "inactive"
  },
  {
    "compound": "Cc1ccc(/C=C2\\N=C(N3CCCC(CO)C3)NC2=O)cc1 (stereo not given)",
    "categoryLabel": "inactive"
  },
  {
    "compound": "Cc1ccc2c(c1)C(c1cccc3ccccc13)OC2=O (stereo not given)",
    "categoryLabel": "inactive"
  },
  {
    "compound": "O=C(O)C(Cl)(Cl)Cl",
    "categoryLabel": "inactive"
  },
  {
    "compound": "CN(C(=O)C1CCCCCC1=O)c1ccccc1Cl (stereo not given)",
    "categoryLabel": "inactive"
  },
  {
    "compound": "C=C(C)C1CC2=C(C(=O)OC)C=C(O2)C(C(=C)C)[C@@H]2OC(=O)/C(=C\\C1O)[C@H]2N(C)C (stereo not given in full)",
    "categoryLabel": "inactive"
  }
]
